For each record, write down the corresponding kon.
Target: T1, human IL-4Rα HIS FLAG (in house HEK-EBNA derived) (human, biotinylated where used as the labelled partner in the DELFIA assay)
T1 construct: also called HuIL-4Rα; Human IL4-Rα/FLAG/HIS tag
T1 chain: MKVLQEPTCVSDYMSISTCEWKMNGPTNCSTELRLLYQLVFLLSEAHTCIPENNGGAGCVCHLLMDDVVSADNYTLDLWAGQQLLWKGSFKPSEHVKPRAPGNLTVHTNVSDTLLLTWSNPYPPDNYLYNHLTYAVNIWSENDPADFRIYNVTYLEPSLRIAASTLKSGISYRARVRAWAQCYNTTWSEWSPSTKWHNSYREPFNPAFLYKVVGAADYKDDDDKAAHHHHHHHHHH
Assay: SPR (BIAcore 2000), IgG captured on Protein G', receptor as analyte, 1:1 Langmuir
The reply should contain only the number, in M⁻¹ s⁻¹.

Entry Antibody 9 IgG (antibody, V domains shown) VH: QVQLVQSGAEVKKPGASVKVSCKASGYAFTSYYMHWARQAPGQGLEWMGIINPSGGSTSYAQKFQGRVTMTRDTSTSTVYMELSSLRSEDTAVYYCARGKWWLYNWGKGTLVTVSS VL: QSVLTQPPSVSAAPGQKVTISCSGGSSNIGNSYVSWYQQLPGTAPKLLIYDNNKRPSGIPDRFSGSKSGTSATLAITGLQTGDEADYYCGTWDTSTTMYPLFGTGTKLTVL has what kon?
543000

Same for Antibody 37 IgG (antibody, V domains shown) VH: QVQLVQSGAEVKKPGASVKVSCKASGYAFTSYYMHWARQAPGQGLEWMGIINPRGGSTSYAQKFQGRVAMTRDTSTSTVYMELSSLRPEDTAVYYCARGKYWMYDWGKGTLVTVSS VL: QSVLTQPPSVSAAPGQKVTISCSGGGSSIGNSYVSWYQQLPGTAPKLLIYDNNKRPSGVPDRFSGSKSGTSATLAITGLQTGDEADYYCGTWDTSPVWEWPFGTGTKLTVL
640000

Again, but for Antibody 2 IgG (antibody, V domains shown) VH: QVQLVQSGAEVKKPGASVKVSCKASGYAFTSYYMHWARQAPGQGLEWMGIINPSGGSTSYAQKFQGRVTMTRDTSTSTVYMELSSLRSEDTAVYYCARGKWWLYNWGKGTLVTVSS VL: QSVLTQPPSVSAAPGQKVTISCSGGSSNIGNSYVSWYQQLPGTAPKLLIYDNNKRPSGIPDRFSGSKSGTSATLAITGLQTGDEADYYCGTWDTSQPPNPLFGTGTKLTVL
651000

And what about the binder Antibody 37GL IgG (antibody, V domains shown, germlined IgG; also called Antibody 37 (FGL)) VH: QVQLVQSGAEVKKPGASVKVSCKASGYAFTSYYMHWVRQAPGQGLEWMGIINPRGGSTSYAQKFQGRVTMTRDTSTSTVYMELSSLRSEDTAVYYCARGKYWMYDWGKGTLVTVSS VL: QSVLTQPPSVSAAPGQKVTISCSGGGSSIGNSYVSWYQQLPGTAPKLLIYDNNKRPSGIPDRFSGSKSGTSATLGITGLQTGDEADYYCGTWDTSPVWEWPFGTGTKLTVL ?
688000
